Value source: ChEMBL document CHEMBL5634127

- experiment_notes: Cytotoxicity against green monkey Vero cells incubated for 5 days by MTT assay
- Type: toxicity, cell-based
- measurement_context: chlorocebus sabaeus, time 5 day
measured_attribute: CC50 at 120 h

- chem_smiles: "COc1cc2c(cc1OC)C1(c3cc(OC)c(OC)cc3C2=O)c2cc(OC)c(OC)cc2C(=O)N1/N=C/c1c2ccccc2cc2ccccc12"
  CC50 at 120 h: "352 µM"
- chem_smiles: "COc1cc2c(cc1OC)C1(c3cc(OC)c(OC)cc3C2=O)c2cc(OC)c(OC)cc2C(=O)N1/N=C/c1ccc2ccccc2n1"
  CC50 at 120 h: "100 µM"
- chem_smiles: "COc1cc2c(cc1OC)C1(c3cc(OC)c(OC)cc3C2=O)c2cc(OC)c(OC)cc2C(=O)N1NC(=O)c1ccc([N+](=O)[O-])cc1"
  CC50 at 120 h: "97.3 µM"
- chem_smiles: "COc1cc2c(cc1OC)C1(c3cc(OC)c(OC)cc3C2=O)c2cc(OC)c(OC)cc2C(=O)N1/N=C/c1ccccc1O"
  CC50 at 120 h: "173 µM"
- chem_smiles: "COc1cc2c(cc1OC)C1(c3cc(OC)c(OC)cc3C2=O)c2cc(OC)c(OC)cc2C(=O)N1/N=C/c1cc(OC)c(O)c(OC)c1"
  CC50 at 120 h: "> 100 µM"
- chem_smiles: "COc1cc2c(cc1OC)C1(c3cc(OC)c(OC)cc3C2=O)c2cc(OC)c(OC)cc2C(=O)N1NC(=O)c1cc(C(F)(F)F)cc(C(F)(F)F)c1"
  CC50 at 120 h: "98.9 µM"

Now consider the entry below.
-- ask Supply measured CC50 at 120 h of COc1cc2c(cc1OC)C1(c3cc(OC)c(OC)cc3C2=O)c2cc(OC)c(OC)cc2C(=O)N1/N=C/c1ccc(Br)cc1 in your reply.
-- reply 181 µM
